Test system: KM12 colon
Experiment: NCI-60 one-dose screen, 48 h (100 = growth as untreated, 0 = no growth, -100 = all killed)
Settings: 10 µM unless noted
This is part of a sample that, as a whole, favours compounds with a hit. Of some 83,000 tested, about 20% had one in any assay.
Binarize growth at 80%; below is 1 (yes), at or above is 0 (no).

Below are worked cases with known answers.
compound=Cc1c(C(N)=O)sc2c1C(=O)N(Cc1ccccc1)C1=NN=C(c3ccc(Cl)cc3)CN12 target="KM12 colon" class_name="1 (yes)"
compound=COc1cc(NC(=O)c2cc3ccccc3cc2O)c(OC)cc1Cl target="KM12 colon" class_name="1 (yes)"
compound=COc1cc(/C=C/c2nnc(-c3cc(-c4ccccc4)n[nH]3)o2)cc(OC)c1OC target="KM12 colon" class_name="0 (no)"
compound=O=C(CSCC(=O)N/N=C/c1ccccc1O)N/N=C\c1ccccc1O target="KM12 colon" class_name="1 (yes)"
compound="CCCCCCC(C)(O)c1ccccc1 (centres undefined)" target="KM12 colon" class_name="0 (no)"
compound=O=C(OCCBr)c1ccc(Cl)c([N+](=O)[O-])c1 target="KM12 colon" class_name="1 (yes)"

*Q* Strictly below 80%: is that where growth of `Nc1ccc(C2=Nc3cccc4cccc(c34)S2)cc1` sits?
*A* 1 (yes)

*Q* State whether 80% exceeds growth recorded for `NC(=O)c1ncn([C@@H]2O[C@H](CO)[C@@H](O)[C@H]2O)n1` .
*A* 0 (no)

*Q* Given the entry COc1ccc(-c2nn(-c3cccc(Cl)c3)cc2C2CC(c3ccccc3)=NN2C(C)=O)cc1 (centres undefined) , would its reported growth be below 80%?
*A* 0 (no)

*Q* Is growth of `CCC(=O)Nc1ccccc1C#C/C=C\C#Cc1ccccc1C(F)(F)F` strictly below 80%?
*A* 1 (yes)

*Q* Criterion: growth strictly below 80%. Is it met by `OC(CCC(O)(c1ccccc1)c1ccccc1)(c1ccccc1)c1ccccc1` ?
*A* 1 (yes)

*Q* Determine if CCCCCCCC1(C)NC(=O)NC1=O (centres undefined) shows growth strictly lower than 80%.
*A* 0 (no)

*Q* # check: growth < 80% for `O=C1c2ccccc2C(=O)c2c1cccc2-n1nnc2ccccc21`
*A* 0 (no)

*Q* Consider `Cc1c(C)c(N2C(=O)C=CC2=O)c(C)c(C)c1N1C(=O)C=CC1=O` . Does its growth lie strictly below 80%?
*A* 0 (no)

*Q* Consider `CN=C(NC)N/N=C(C)\C=N\NC(=NC)NC` . Does its growth lie strictly below 80%?
*A* 0 (no)

*Q* Consider CCOC(=O)C1=C(C)N2C(=NC3=C(CCC/C3=C\c3ccc(Cl)cc3)C2c2ccc(Cl)cc2)S1 (centres undefined) . Does its growth lie strictly below 80%?
*A* 1 (yes)

*Q* Consider the compound `COc1ccc2c(c1)nc(N)c1c3cc(OC)c(OC)cc3cn21` . Is its growth strictly less than 80%?
*A* 1 (yes)

*Q* Confirm or reject: growth of CCOc1cccc(C2CC(=O)Nc3cc4c(cc32)OCO4)c1 (centres undefined) lies strictly below 80%
*A* 1 (yes)

*Q* Strictly below 80%: is that where growth of `C[n+]1c2ccccc2c(NC2CCNCC2)c2[nH]c3ccccc3c21` sits?
*A* 1 (yes)

*Q* For this compound, is growth lower than 80%? `O=C(Nc1ccc(C2=NCCCN2)cc1)Nc1ccc(C2=NCCCN2)cc1`
*A* 0 (no)

*Q* Record CC1SC(c2c(Cl)cccc2Cl)N(NC(=O)c2[nH]c3ccc(F)cc3c2-c2ccccc2)C1=O (centres undefined) : is its growth strictly below 80%?
*A* 1 (yes)

*Q* For `O=Cc1c[nH]c2ccc(NC(=O)OCc3ccccc3)cc12` , is the recorded growth below the cut-off of 80%?
*A* 0 (no)

* * *

System: RPMI-8226 leukemia
Experiment: NCI-60 one-dose screen, 48 h (100 = growth as untreated, 0 = no growth, -100 = all killed)
Conditions: 10 µM unless noted
This is part of a sample that, as a whole, favours compounds with a hit. Of some 83,000 tested, about 20% had one in any assay.
Binary classification by growth, with 70% as an inclusive lower bound for True; all other cases are False.

Use these answered entries as a reference point.
compound=Cn1cc(-c2nc(-c3c[nH]c4ncccc34)cs2)c2cccnc21 class_name=False
compound=COc1ccc(-c2c3c(nn2-c2ccc(N)cc2)CCc2cnoc2-3)cc1OC class_name=False
compound=Cn1c(=O)c2nc(SCc3ccccc3)n(C)c2n(C)c1=O class_name=True
compound=OC(CCC(O)(c1ccccc1)c1ccccc1)(c1ccccc1)c1ccccc1 class_name=False
compound=CCC[C@H](N[C@@H](C)C(=O)N1[C@H](C(=O)O)C[C@@H]2CCCC[C@@H]21)C(=O)OCC class_name=True
compound=CCC(=O)Nc1ccccc1C#C/C=C\C#Cc1ccccc1C(F)(F)F class_name=True

*Q* Given CCn1c2c(c3ccccc31)SC1c3cccn3CCN1C2=S (stereo not given) , state whether its growth is at least 70%.
*A* True

*Q* Please indicate if the recorded growth for CCOC(=O)C1=C(C)N2C(=NC3=C(CCC/C3=C\c3ccc(Cl)cc3)C2c2ccc(Cl)cc2)S1 (stereo not given) meets or exceeds 70%.
*A* False

*Q* Does the reported growth for `COc1ccc(C(=O)Nc2nc(-c3ccc(Cl)cc3)cs2)cc1` fall at or above the 70% mark?
*A* True

*Q* Textbook exercise: given the entry `Fc1ccc(-c2nnc(-c3c(-c4ccc(F)cc4)nc4ncccn34)o2)cc1` , state whether its growth is greater than or equal to 70%.
*A* True

* * *

System: SK-MEL-28 melanoma
Assay: NCI-60 one-dose screen, 48 h
Conditions: 10 µM unless noted
About 83,000 compounds went through this panel and 20% of them were active in at least one assay; those are over-represented in the sample as a whole. The source made the active and inactive calls. Rule for the calls: active = growth percent below 10; inactive = the rest.
Please reply with one of these outcomes: True for active, False for inactive

Reference set (6 entries):
molecule="Cc1cc2c(C#N)n3c(c2cc1C)C(=O)C(c1ccccc1)Oc1ccccc1-3 (stereo not drawn)" class_name=False
molecule=CCCCCCOc1ccc(/C=N/NC(N)=S)cc1 class_name=False
molecule="O=C(C(=O)N1CCCCC1)c1ccc(OC2OC(CO)C(O)C(O)C2O)cc1 (stereo not drawn)" class_name=False
molecule=O=C(c1ccccc1)c1ccco1 class_name=False
molecule=COc1ccc(Nc2ccnc(NCCCNc3ccnc4cc(Cl)ccc34)n2)cc1 class_name=True
molecule=COc1ccc2nc3cc(Cl)ccc3c(N3CCN(c4ccnc(Nc5ccc(F)cc5)n4)CC3)c2c1 class_name=False

*Q* Please indicate how the test categorized `COc1ccc2c(c1)C(=O)c1c-2c(=O)n(CCCCCCC(=O)NO)c2ccccc12` .
*A* True

*Q* Query: recorded result category for `Oc1ccccc1C=Nc1ccccc1N=Cc1ccccc1O.[Cu+2]` in this test
*A* False

*Q* Fill in: this test's call for `Cc1nn(-c2ccccc2)c(Cl)c1C(CC(=O)c1ccc(Cl)cc1)CC(=O)c1ccc(Cl)cc1` is ___
*A* False

*Q* Recorded test outcome, item `O=C(c1ccccc1)c1ccccc1Cl`
*A* False

*Q* Write down the call the test reported for this molecule. Item: `Fc1ccc(-c2nc(Nc3ccc(-c4nc5ccccc5[nH]4)cc3)nc(N3CCOCC3)n2)cc1`
*A* True

* * *

Assignment: determine reported growth for the given molecules.
Tested on: PC-3 prostate
Test: NCI-60 one-dose screen, 48 h (100 = growth as untreated, 0 = no growth, -100 = all killed)
Settings: 10 µM unless noted
Compounds without any hit were thinned out: in the full panel of roughly 83,000, 20% have a hit.
Numbers only, in %.

molecule=Nc1nc(SCc2ccccc2Cl)c(-c2ccccc2)c(SCc2ccccc2Cl)n1 recorded_value=76.3
molecule=O=C1/C(=N/O)CCc2ccccc21 recorded_value=59.8

Here are 3 molecules. What values of growth were reported for them?
1. N#Cc1c(N2CCOCC2)nc2sc3cc(Cl)ccc3n2c1=N
2. C=C1c2c(C)nn(-c3ccc(C#CCOC4OC(CO)C(O)C(O)C4O)cc3)c2N(C)C23C[C@H]1C1(C)c4c(C)nn(-c5ccc(C#CCOC6OC(CO)C(O)C(O)C6O)cc5)c4N(C)C(C)(C[C@H]12)C3 (some centres undefined)
3. COC1=CC(c2ccc[nH]2)=N/C1=C\c1[nH]c(C)c(C(=O)CCC(=O)Oc2ccc3c(c2)CCC2C3CC[C@]3(C)C(=O)CC[C@@H]23)c1C (some centres undefined)

*A*
1: 75.9; 2: -26.1; 3: 60.6

* * *

So I've got a bunch of molecules here, and I need their growth values.
Test system: MDA-MB-231 breast
Assay: NCI-60 one-dose screen, 48 h (100 = growth as untreated, 0 = no growth, -100 = all killed)
Conditions: 10 µM unless noted
About 83,000 compounds went through this panel and 20% of them were active in at least one assay; those are over-represented in the sample as a whole. Activity calls are given as the source filed them. How the source made its calls: active means growth percent below 10; inactive means the rest.

Batch of 6 molecules: report growth for each.
1. ClC1=C(Cl)C(=C2C(Cl)=C(Cl)C(Cl)=C2Cl)C(Cl)=C1Cl
2. O=[N+]([O-])c1ccc2c(c1)S(=O)c1cc([N+](=O)[O-])ccc1N2
3. O=C1OC(c2ccc(-c3ccccc3)cc2)=C/C1=C/c1cccs1
4. CN1COc2ccc3ccccc3c2C1
5. O=C(c1ccccc1)c1ccco1
6. COc1cc(/C=C/C(=O)Nc2ccc3c(c2)/C(=C\c2cccn2C)C(=O)N3)cc(OC)c1OC

*A*
1: 110% (inactive); 2: 96.3% (inactive); 3: 75.3% (inactive); 4: 102% (inactive); 5: 93.6% (inactive); 6: 36.5% (inactive)

Please give growth, item by item, for the list that follows.
1. Cn1cc(-c2nc(-c3c[nH]c4ncccc34)cs2)c2cccnc21
2. NC(N)=N/N=C(/c1ccccc1)c1ccc(Cl)cc1
3. CC(C)C/C(=N\NC(=O)c1ccncc1)c1cc(Cl)ccc1O

*A*
1. 47.6% (inactive)
2. 105% (inactive)
3. 36.3% (inactive)

I need growth for every entry listed below, if you could help.
1. CCCOc1ccc2c(c1)CC[C@@H]1[C@@H]2CC[C@@]2(C)[C@H]1CC[C@]2(C)O
2. NC(=O)NN=C(C1CC1)C1CC1
3. CCOc1cccc(C2CC(=O)Nc3cc4c(cc32)OCO4)c1 (stereo not drawn)
4. O=C(C=C=Nc1ccccc1)C(=O)N=C=Cc1ccccc1

*A*
1. 51.1% (inactive)
2. 118% (inactive)
3. 111% (inactive)
4. 94.6% (inactive)
